Please provide measured inhibition at 0.05 µM for the entries that follow.
# target entity: PDGFRA (Homo sapiens)
# Sequence (P16234 24-1089): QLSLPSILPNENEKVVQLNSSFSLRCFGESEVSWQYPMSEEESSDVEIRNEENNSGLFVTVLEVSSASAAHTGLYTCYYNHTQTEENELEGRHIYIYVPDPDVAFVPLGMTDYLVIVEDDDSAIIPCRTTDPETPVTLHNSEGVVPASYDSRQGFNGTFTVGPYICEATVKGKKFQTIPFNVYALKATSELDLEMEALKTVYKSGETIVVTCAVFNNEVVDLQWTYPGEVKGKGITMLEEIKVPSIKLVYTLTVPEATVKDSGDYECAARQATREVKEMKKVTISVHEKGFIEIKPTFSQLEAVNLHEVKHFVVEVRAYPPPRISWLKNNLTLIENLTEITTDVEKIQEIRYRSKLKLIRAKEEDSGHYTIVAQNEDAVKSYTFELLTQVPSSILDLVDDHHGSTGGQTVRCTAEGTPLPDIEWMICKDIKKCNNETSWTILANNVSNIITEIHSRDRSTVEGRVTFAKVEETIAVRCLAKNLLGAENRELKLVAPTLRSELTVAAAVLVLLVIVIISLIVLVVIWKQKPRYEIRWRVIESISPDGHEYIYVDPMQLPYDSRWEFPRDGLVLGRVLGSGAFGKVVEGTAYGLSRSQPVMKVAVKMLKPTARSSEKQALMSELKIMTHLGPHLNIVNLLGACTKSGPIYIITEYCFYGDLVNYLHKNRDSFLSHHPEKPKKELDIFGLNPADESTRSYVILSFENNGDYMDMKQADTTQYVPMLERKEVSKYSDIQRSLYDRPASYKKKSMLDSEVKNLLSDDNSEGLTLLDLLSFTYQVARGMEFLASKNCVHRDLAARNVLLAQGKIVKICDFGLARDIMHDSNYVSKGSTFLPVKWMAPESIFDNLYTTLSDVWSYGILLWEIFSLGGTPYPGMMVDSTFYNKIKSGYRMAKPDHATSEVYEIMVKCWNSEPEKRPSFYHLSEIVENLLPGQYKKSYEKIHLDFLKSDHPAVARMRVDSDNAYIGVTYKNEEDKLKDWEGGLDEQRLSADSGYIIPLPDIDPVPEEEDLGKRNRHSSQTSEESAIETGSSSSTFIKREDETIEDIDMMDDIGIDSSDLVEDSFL
# measurement protocol: Z'-Lyte biochemical kinase assay (SelectScreen), PDGFRA
# measurement parameters: at 50 nM, in duplicate
Expressed in %, but write only the number.

Enquiry: Look up inhibition at 0.05 µM: COc1ccc2c(Oc3cccc(C(=O)NCc4cccc(F)c4)c3C)ccnc2c1 [compound 33]
Return: 10

Enquiry: Look up inhibition at 0.05 µM: COc1cc2nccc(Oc3cccc(C(=O)NCc4cncc(F)c4)c3)c2cc1OC [compound 29]
Return: 21

Enquiry: Look up inhibition at 0.05 µM: COc1cc2nccc(Oc3cccc(C(=O)NCCc4ccccc4)c3)c2cc1OC [compound 25]
Return: 27

Enquiry: Look up inhibition at 0.05 µM: COc1cc2nccc(Oc3cccc(C(=O)N[C@H](C)c4ccccc4)c3)c2cc1OC [compound 24]
Return: 24
